Tested on: SW-620
ASSAY_METHOD_TEXT: NCI tumour cell line growth inhibition, 48 h
Active and inactive are the calls of the source. Rule as the data show it: active = GI50 up to about 1.1 µM and inactive = higher.
Choose one outcome from this list and give only that: Yes = active, No = inactive

COMPOUND: CCN(CC)CCCNc1nc2ccccc2[n+]([O-])n1
CATEGORY: No
--
COMPOUND: C/C=C/C(CC(O)(C(F)(F)F)C(F)(F)F)=N/NC(N)=S
CATEGORY: No
--
COMPOUND: O=c1cc(-c2ccccc2)oc2cc(OCCCCCCCCCCOc3ccc4c(=O)cc(-c5ccccc5)oc4c3)ccc12
CATEGORY: No
--
COMPOUND: C/C(=N\NC(N)=S)c1sc(-n2nc(-c3ccccc3)cc2-c2ccccc2)nc1C
CATEGORY: No
--
COMPOUND: COC1=C2CC(C)CC(OC)C(OC(=O)CN)[C@H](C)/C=C(\C)C(OC(N)=O)C(OC)/C=C\C=C(/C)C(=O)NC(=CC1=O)C2=O (stereo partly specified)
CATEGORY: Yes

Identify the outcome logged in this assay for the compound shown: O=C1N/C(=N\N=C\c2ccccc2)C(c2ccccc2)O1 (stereo unspecified)
No

Next up: O=C(O)CCSCc1ccc(I)cc1
No

====

System: M14
ASSAY_METHOD_TEXT: NCI tumour cell line growth inhibition, 48 h
The source made the active and inactive calls. Cut-off read from the data, not from the text of the source: active = GI50 up to about 1.1 µM and inactive = higher.
REPORTED_PROPERTY: GI50

See these solved cases before continuing.
COMPOUND: C=C1C(=O)O[C@H]2C/C(C)=C/CC/C(C)=C/CC[C@@](C)(O)[C@@H](I)C[C@@H]12
GI50: 9.64 µM (inactive)
--
COMPOUND: CC(=O)NC(CCCCN(Cc1ccccc1)C(=O)NCCCl)C(=O)NCc1ccccc1 (stereo not given)
GI50: > 100 µM (inactive)
--
COMPOUND: N#CC(C(=O)CCC(=O)Nc1cccc(C(F)(F)F)c1)c1ccccc1 (stereo not given)
GI50: > 100 µM (inactive)
--
COMPOUND: O=C(O)CCCNS(=O)(=O)c1ccccc1
GI50: > 100 µM (inactive)
--
COMPOUND: O=C(O)/C=C/c1nc2ccccc2c(=O)o1
GI50: > 100 µM (inactive)
--
COMPOUND: CCn1c(=O)c2ccccc2n2c(=O)c3cc4ccccc4cc3nc12
GI50: > 100 µM (inactive)
--
COMPOUND: O=c1[nH]c(=O)n(COCCO)cc1-c1ccccc1
GI50: > 100 µM (inactive)
--
COMPOUND: CC(C)(C)C(=O)ON1N=NC2C3CC(OCc4ccccc4)(OCc4ccccc4)C(O3)C21 (stereo not given)
GI50: 26.4 µM (inactive)
--
COMPOUND: CC(C)(C)OC(=O)N1CC(C)(C)N2C(=O)C3(CCCO3)C12 (stereo not given)
GI50: > 100 µM (inactive)

Give GI50 (M14) of the following compound: CCOC(=O)c1cc(C2CCN(c3ccccc3)C2=O)c(C(=O)/C=C(/C)O)[nH]1 (stereo not given)
> 100 µM (inactive)

====

System: UACC-62
ASSAY_METHOD_TEXT: NCI tumour cell line growth inhibition, 48 h
Active and inactive are the calls of the source. No stated cut-off is given here; in the data, active = GI50 up to about 1.1 µM and inactive = higher.
Allowed answers: true (1) (active), false (0) (inactive)

Here are 2 compounds together with their reported answers.
COMPOUND: Cc1nc2c(c(=O)[nH]1)S/C(=C(/C#N)c1nc3ccccc3[nH]1)N2c1ccccc1
CATEGORY: false (0)
--
COMPOUND: CC(=O)SC(C[N+](=O)[O-])c1ccccc1 (configuration not stated)
CATEGORY: false (0)

Per the assay record, what outcome was assigned to O=C(CCl)NNC1=Nc2ccc(Cl)cc2SC1 ?
false (0)

Now give it for CNC(=O)NCCN1N=C(C)/C(=C\c2ccccc2)CC1=O too.
false (0)

Moving on to the next compound: CC(C)=CCC/C(C)=C/CC/C(C)=C/CC/C(C)=C/CC/C(C)=C\CC/C(C)=C/CC/C(C)=C/CC/C(C)=C/Cc1cc(O)ccc1O
true (1)

Record: O=C(NCCCN(CCCCN(CCCNC(=O)c1cc(S(=O)(=O)O)cc(O)c1O)C(=O)c1cc(S(=O)(=O)O)cc(O)c1O)C(=O)c1cc(S(=O)(=O)O)cc(O)c1O)c1cc(S(=O)(=O)O)cc(O)c1O
false (0)

Please do the same for C[C@H]1CC[C@@]2(NC1)O[C@H]1C[C@H]3[C@@H]4CC[C@H]5C[C@@H](O)CC[C@]5(C)[C@H]4CC[C@]3(C)[C@H]1[C@@H]2C as well.
false (0)

====

System: NCI-H522
ASSAY_METHOD_TEXT: NCI tumour cell line growth inhibition, 48 h
Calls of active or inactive are those of the source. Rule as the data show it: active = GI50 up to about 1.1 µM and inactive = higher.
REPORTED_PROPERTY: GI50

Would you please look over these solved cases?
COMPOUND: Nc1ncnc2c1ncn2C1CC(OC2CCCCO2)C(CO)O1 (stereo not given)
GI50: > 100 µM (inactive)

COMPOUND: COc1cc(CNc2nc3cc(C(F)(F)F)ccc3nc2-c2ccccc2)cc(OC)c1OC
GI50: 22.3 µM (inactive)

COMPOUND: O=C(Cc1ccccc1)N/N=C1\C(=O)Nc2ccccc21
GI50: 48.1 µM (inactive)

COMPOUND: Cc1ccc(-c2cc(N)n(-c3nc4c(c(=O)n(C)c(=O)n4C)n3C)n2)cc1
GI50: 86.5 µM (inactive)

COMPOUND: COc1cc(/C=C/c2csnn2)cc(OC)c1OC
GI50: > 100 µM (inactive)

COMPOUND: CCOC(=O)C1=C(Nc2ccccc2)SCC1=O
GI50: > 100 µM (inactive)

Can you look up the measured GI50 of COC(=O)/C(=N/NC(N)=O)C(C(=O)OC)C(=O)C(=O)Nc1ccc(Cl)cc1 (stereo not given) for me?
> 100 µM (inactive)

Cool, now COc1ccc2c(c1)c1c3c(ccc4ncn2c43)N(CCN(C)C)CCN=1
0.19 µM (active)

Try the compound Cc1c2cc[n+](COC(=O)c3ccccc3)cc2c(C)c2c1[nH]c1ccccc12
1.08 µM (active)

Now the compound O=C(c1cccnc1)N1N=C(c2ccccc2)CC1(O)c1cc(F)c(Cl)cc1Cl (stereo not given)
26.1 µM (inactive)

====

Test system: IGROV-1
ASSAY_METHOD_TEXT: NCI tumour cell line growth inhibition, 48 h
Calls of active or inactive are those of the source. Cut-off read from the data, not from the text of the source: active = GI50 up to about 1.1 µM and inactive = higher.
GI50 values by entry

MOLECULE: COC1=C2C[C@@H](C)C[C@@H](OC)[C@@H](O)[C@H](C)/C=C(\C)[C@@H](OC(N)=O)[C@H](OC)/C=C\C=C(/C)C(=O)NC(=CC1=O)C2=O
TESTED_ON: IGROV-1
MEASUREMENT: 0.29 µM (active)

MOLECULE: C=C1C(=O)OC2C3C(=C)[C@@H](OC(C)=O)CC3C(C)=CC(OC(=O)C(C)(O)C(C)OC(C)=O)[C@@H]12 (stereo partly specified)
TESTED_ON: IGROV-1
MEASUREMENT: 7.36 µM (inactive)

MOLECULE: C1CCC(N=C2N(C3CCCCC3)C(=NC3CCCCC3)N2C2CCCCC2)CC1
TESTED_ON: IGROV-1
MEASUREMENT: > 100 µM (inactive)

MOLECULE: Oc1cc(/C=C/c2ccccc2)nc2cc3c(cc12)OCO3
TESTED_ON: IGROV-1
MEASUREMENT: 4.56 µM (inactive)

MOLECULE: COC(=O)C12C3C4C1C1C2C3C41I (stereo unspecified)
TESTED_ON: IGROV-1
MEASUREMENT: > 100 µM (inactive)

Here is the next item to consider.
IGROV-1 / GI50 / CC(=O)NC1=C(NCC(C)C)C(=O)c2ccccc2C1=O : value?
43.5 µM (inactive)

====

Test system: SK-OV-3
ASSAY_METHOD_TEXT: NCI tumour cell line growth inhibition, 48 h
Calls of active or inactive are those of the source. Cut-off read from the data, not from the text of the source: active = GI50 up to about 1.1 µM and inactive = higher.
Consider the following compounds and their measured GI50 readings.

# annotated cases, reported GI50 shown
COMPOUND: O=c1c2ccccc2nc(-c2ccccc2)n1NCC1(O)OCC(O)C(O)C1O (stereo not drawn)
GI50: > 100 µM (inactive)
//
COMPOUND: O=C(CCCNc1nc(-c2ccccc2)cs1)c1cccs1
GI50: > 100 µM (inactive)

I have this compound here, COc1ccc(OC)c2c1C[C@@H]1C(C#N)N3[C@H](Cc4c(OC)ccc(OC)c4[C@@H]3C)C(=O)N1[C@H]2C (stereo partly drawn) , and I need its recorded GI50.
11.9 µM (inactive)

====

Tested on: HOP-18
ASSAY_METHOD_TEXT: NCI tumour cell line growth inhibition, 48 h
The source made the active and inactive calls. Cut-off read from the data, not from the text of the source: active = GI50 up to about 1.1 µM and inactive = higher.
Please reply with one of these outcomes: t for active, f for inactive

Sample answers from the record:
MOLECULE: c1ccc(C2=NOC3C4CCC(C4)C23)cc1 (stereo not drawn)
CATEGORY: f

MOLECULE: NCCCNC(=O)c1csc(NC(=O)c2csc(NC(=O)CCCN)n2)n1
CATEGORY: f

MOLECULE: Cc1ccc(NP(=O)(Oc2ccccc2)N(CCCl)CCCl)cc1 (stereo not drawn)
CATEGORY: f

MOLECULE: O=C(O)CCCNS(=O)(=O)c1ccccc1
CATEGORY: f

MOLECULE: O=C(Nc1cccc(Cl)c1)C(=O)C(C(=O)c1ccc2ccccc2c1)C1OC(=O)c2ccccc21 (stereo not drawn)
CATEGORY: f

MOLECULE: O=c1c2ccccc2nc(-c2ccccc2)n1NCC1(O)OCC(O)C(O)C1O (stereo not drawn)
CATEGORY: f

Test call for this molecule, please: O=S1(=O)COc2ccccc2-c2ncncc21
f

Now this one: COc1cccc2c1C(=O)c1c(O)c3c(c(O)c1C2=O)C[C@@](O)(C(=O)CO)CC3OC1CC(N)C(OC2CCCCO2)C(C)O1 (stereo partly drawn)
t

Sourced from ChEMBL document CHEMBL1201862
